TESTED_SYSTEM: human recombinant adrenergic α2B receptor (Homo sapiens, UniProt P18089)
Construct: expressed in transfected cells; host or cells: CHO-K1 cells
Sequence (P18089 whole entry): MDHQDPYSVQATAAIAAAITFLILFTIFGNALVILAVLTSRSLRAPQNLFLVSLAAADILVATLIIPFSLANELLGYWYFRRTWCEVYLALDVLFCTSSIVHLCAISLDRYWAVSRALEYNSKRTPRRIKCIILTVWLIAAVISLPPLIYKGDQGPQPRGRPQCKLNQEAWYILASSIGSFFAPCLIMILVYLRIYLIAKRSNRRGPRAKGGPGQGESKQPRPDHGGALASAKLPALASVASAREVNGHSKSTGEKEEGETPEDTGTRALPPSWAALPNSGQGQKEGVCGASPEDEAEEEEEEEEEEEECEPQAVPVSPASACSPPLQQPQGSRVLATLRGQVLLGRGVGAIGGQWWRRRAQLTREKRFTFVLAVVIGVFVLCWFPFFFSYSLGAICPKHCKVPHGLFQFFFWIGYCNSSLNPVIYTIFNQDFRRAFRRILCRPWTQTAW
PROTOCOL_DETAILS: Adrenergic alpha2B radioligand binding ([3H]Rauwolscine)
SETUP_CONDITIONS: compound at 1 μM; read-out: Adrenergic (1 μM) α2B, percent inhibition of specific binding
VALUE_KIND: inhibition at 1 µM (%)
Numbers only, in %.

Some compounds with recorded inhibition at 1 µM:
COMPOUND	VALUE_KIND	READING_UNIT	TEST_VALUE
Cc1ccc2c(c1)c1c(n2CCc2cncc(Cl)c2)CCN(C)CC1	inhibition at 1 µM	%	93
Cc1ccc2c(c1)c1c(n2CC(C)(O)c2ccc(F)cc2)CCN(C)CC1 (stereo not drawn)	inhibition at 1 µM	%	100
COc1ccc(C(O)Cn2c3c(c4cc(Cl)ccc42)CCN(C)CC3)cc1 (stereo not drawn)	inhibition at 1 µM	%	105
Cc1ccc2c(c1)c1c(n2/C=C/c2ccccc2F)CCN(C)CC1	inhibition at 1 µM	%	100
Cc1ccc2c(c1)c1c(n2/C=C/c2ccccc2)CCN(C)CC1	inhibition at 1 µM	%	103

For every item below, please supply its inhibition at 1 µM.
1. C/C(=C/n1c2c(c3cc(Cl)ccc31)CCN(C)CC2)c1ccc(Cl)cc1Cl
2. C=C(Cn1c2c(c3cc(Cl)ccc31)CCN(C)CC2)c1ccc(Cl)cc1
3. Cc1ccc2c(c1)c1c(n2CCc2ccncc2)CCN(C)CC1
4. COc1ccc(C(O)Cn2c3c(c4cc(Cl)ccc42)CCN(C)CC3)cc1OC (stereo not drawn)
5. CN1CCc2c(n(CC(=O)Nc3ccccc3)c3ccc(Cl)cc23)CC1

-- reply
[88, 112, 106, 113, 21]

* * *

TESTED_SYSTEM: human recombinant histamine H1 receptor (Homo sapiens, UniProt P35367)
Construct: expressed in transfected cells; host or cells: CHO cells
Sequence (P35367 whole entry): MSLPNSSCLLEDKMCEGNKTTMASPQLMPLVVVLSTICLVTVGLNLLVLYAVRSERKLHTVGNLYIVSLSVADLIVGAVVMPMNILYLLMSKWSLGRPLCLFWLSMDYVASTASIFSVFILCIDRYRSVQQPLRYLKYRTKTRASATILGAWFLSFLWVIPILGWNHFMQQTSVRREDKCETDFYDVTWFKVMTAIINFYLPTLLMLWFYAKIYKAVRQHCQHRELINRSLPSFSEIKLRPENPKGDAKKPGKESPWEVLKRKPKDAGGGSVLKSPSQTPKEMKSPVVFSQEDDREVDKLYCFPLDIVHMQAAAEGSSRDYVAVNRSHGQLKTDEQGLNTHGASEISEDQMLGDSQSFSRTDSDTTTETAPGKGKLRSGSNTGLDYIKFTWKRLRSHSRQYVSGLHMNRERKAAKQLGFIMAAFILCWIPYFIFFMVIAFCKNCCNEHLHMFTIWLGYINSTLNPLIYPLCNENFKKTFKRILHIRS
PROTOCOL_DETAILS: Histamine H1 radioligand binding ([3H]Pyrilamine)
SETUP_CONDITIONS: compound at 1 μM; read-out: Histamine Binding (1 μM) H1, percent inhibition of specific binding
Description: To evaluate in radioligand binding assays the activity of compounds of the invention, human recombinant histamine H1 receptor expressed in Chinese hamster ovary (CHO) cells (De Backer, M. D. et al., Biochem. Biophys. Res. Comm. 197(3):1601, 1993) in a modified Tris-HCl buffer (50 mM Tris-HCl, pH 7.4, 2 mM MgCl2, 100 mM NaCl, 250 mM Sucrose) was used. […] Receptor proteins were filtered and washed, the filters were then counted to determine [^3H]Pyrilamine specifically bound. […]
Kindly supply the reported inhibition at 1 µM values for the records listed here.
Answers are plain numbers, in %.

MOLECULE	TESTED_SYSTEM	inhibition at 1 µM [%]
Cc1ccc2c(c1)c1c(n2CC(=O)Nc2ccccc2)CCN(C)CC1 [Compound No. 79]	human recombinant histamine H1 receptor (Homo sapiens, UniProt P35367)	6

Would you be so kind as to report inhibition at 1 µM for each listed record?
1. CN1CCc2c(n(CCc3ccc(C(F)(F)F)nc3)c3ccc(Cl)cc23)CC1 [Compound No. 1]
2. COc1ccc(/C=C/n2c3c(c4cc(Cl)ccc42)CCN(C)CC3)cc1F [Compound No. 158]
3. CN1CCc2c(n(CC(O)c3ccccc3F)c3ccc(Cl)cc23)CC1 (centres unmarked) [Compound No. 40]
4. CC1CCN(C(=O)Cn2c3c(c4cc(Cl)ccc42)CCN(C)CC3)CC1 [Compound No. 76]
5. CN1CCc2c(n(CC(C)(O)c3ccc(F)cc3)c3ccc(Cl)cc23)CC1 (centres unmarked) [Compound No. 13]
6. COc1ccc(/C=C/n2c3c(c4cc(C)ccc42)CCN(C)CC3)cc1F [Compound No. 180]
7. COc1ccc(C(O)Cn2c3c(c4cc(C)ccc42)CCN(C)CC3)cc1 (centres unmarked) [Compound No. 48]

-- reply
[96, 98, 101, 95, 98, 97, 98]

// input: 2 molecules below; output: inhibition at 1 µM for each
1. CN1CCc2c(n(/C=C/c3ccccc3F)c3ccc(Cl)cc23)CC1 [Compound No. 83]
2. CN1CCc2c(n(CC(=O)N(C)C3CCCCC3)c3ccc(Cl)cc23)CC1 [Compound No. 74]

-- reply
97
25

Look at each molecule and report its inhibition at 1 µM.
1. Cc1ccc2c(c1)c1c(n2CC(=O)OC2CCCC2)CCN(C)CC1 [Compound No. 55]
2. Cc1ccc2c(c1)c1c(n2CCc2ccc(C(=O)O)nc2)CCN(C)CC1 [Compound No. 11]
3. Cc1ccc2c(c1)c1c(n2CCc2ccccc2F)CCN(C)CC1 [Compound No. 63]

-- reply
1: 15; 2: 97; 3: 99

Each of the following entries comes with a recorded value; kindly state inhibition at 1 µM for each.
1. CC(C)NC(=O)Cn1c2c(c3cc(Cl)ccc31)CCN(C)CC2 [Compound No. 31]
2. COc1ccc(/C=C/n2c3c(c4cc(Cl)ccc42)CCN(C)CC3)cc1 [Compound No. 78]
3. CN1CCc2c(n(CCc3ccc(C(=O)O)nc3)c3ccc(Cl)cc23)CC1 [Compound No. 21]
4. COc1ccc(/C(C)=C/n2c3c(c4cc(Cl)ccc42)CCN(C)CC3)cc1F [Compound No. 157]
5. COc1ccc(C(O)Cn2c3c(c4cc(Cl)ccc42)CCN(C)CC3)cc1F (centres unmarked) [Compound No. 67]
6. Cc1ccc(CCn2c3c(c4cc(Cl)ccc42)CCN(C)CC3)cc1 [Compound No. 46]
7. Cc1ccc2c(c1)c1c(n2CC(=O)Nc2ccc(F)cc2)CCN(C)CC1 [Compound No. 44]
8. Cc1ccc2c(c1)c1c(n2CC(O)c2ccccc2)CCN(C)CC1 (centres unmarked) [Compound No. 25]

-- reply
[14, 100, 96, 68, 100, 108, 16, 91]

Count: 4. Required value per item: inhibition at 1 µM.
1. Cc1ccc(C(O)Cn2c3c(c4cc(Cl)ccc42)CCN(C)CC3)cn1 (centres unmarked) [Compound No. 7]
2. C/C(=C\n1c2c(c3cc(Cl)ccc31)CCN(C)CC2)c1ccccc1F [Compound No. 243]
3. Cc1ccc2c(c1)c1c(n2/C=C/c2ccc(F)cc2)CCN(C)CC1 [Compound No. 39]
4. CN1CCc2c(n(CC(=O)OCc3ccccc3)c3ccc(Cl)cc23)CC1 [Compound No. 75]

-- reply
[101, 93, 98, 20]

// for each molecule below, give its inhibition at 1 µM
1. Cc1ccc2c(c1)c1c(n2CC(O)c2cccnc2)CCN(C)CC1 (centres unmarked) [Compound No. 19]
2. Cc1ccc(C(O)Cn2c3c(c4cc(C)ccc42)CCN(C)CC3)cc1 (centres unmarked) [Compound No. 27]
3. CN1CCc2c(n(CC(O)c3ccc(F)cc3)c3ccc(Cl)cc23)CC1 (centres unmarked) [Compound No. 51]
4. Cc1ccc2c(c1)c1c(n2/C=C/c2ccccc2F)CCN(C)CC1 [Compound No. 233]
5. COc1ccc(C(O)Cn2c3c(c4cc(Cl)ccc42)CCN(C)CC3)cc1 (centres unmarked) [Compound No. 47]
6. Cc1ccc2c(c1)c1c(n2CCc2ccc(Cl)cc2)CCN(C)CC1 [Compound No. 28]

-- reply
1: 99; 2: 101; 3: 102; 4: 98; 5: 100; 6: 103

Each of the following entries comes with a recorded value; kindly state inhibition at 1 µM for each.
1. C/C(=C\n1c2c(c3cc(Cl)ccc31)CCN(C)CC2)c1ccc(Cl)cc1 [Compound No. 36]
2. COc1ccc(C(O)Cn2c3c(c4cc(C)ccc42)CCN(C)CC3)cc1OC (centres unmarked) [Compound No. 227]

-- reply
[88, 95]

Record inhibition at 1 µM per entry; entries follow.
1. CN1CCc2c(n(CC(=O)N3CCCCC3)c3ccc(Cl)cc23)CC1 [Compound No. 57]
2. COc1ccc(/C(C)=C/n2c3c(c4cc(C)ccc42)CCN(C)CC3)cc1 [Compound No. 182]

-- reply
1. 8
2. 62

Where do the numbers come from? From patent US9481676B2.
